Tested on: white mice
Assay: Acute toxicity after oral administration of a single dose
Format: in vivo
Conditions: observation time 14 days
attribute-measured: animals died (at the stated dose)

Reference set (3 entries):
> print(dat)
                                   compound  subject.of.test  experimental.value
1  CNC(=O)C[S+]([O-])C(C)c1ccc(-c2ccccc2F)cc1 (stereo not drawn)       white mice          0 out of 5
2  COC(=O)C[S+]([O-])C(C)c1ccc(-c2ccccc2F)c(F)c1 (stereo not drawn)       white mice          0 out of 5
3  COC(=O)C[S+]([O-])C(C)c1ccc(-c2ccccc2F)cc1 (single isomer, unassigned) [A]       white mice         1 out of 10

Hello, I would appreciate it if you could give animals died (at the stated dose) for each entry below.
1. COC(=O)CS(=O)(=O)C(C)c1ccc(-c2ccccc2F)cc1 (stereo not drawn)
2. CC(C)CCOC(=O)C[S+]([O-])C(C)c1ccc(-c2ccccc2F)cc1 (stereo not drawn)
3. COC(=O)C[S+]([O-])C(C)c1ccc(-c2ccccc2F)cc1 (single isomer, unassigned) [B]
4. CC(c1ccc(-c2ccccc2F)cc1)[S+]([O-])CC(=O)N1CCCCC1 (stereo not drawn)
5. COC(=O)C[S+]([O-])C(C)c1ccc(-c2ccccc2[N+](=O)[O-])cc1 (stereo not drawn)
6. COC(=O)C[S+]([O-])C(C)c1ccc(-c2cccc(Cl)c2)cc1 (stereo not drawn)
7. CC(c1ccc(-c2ccccc2F)cc1)S(C)(=O)=O (stereo not drawn)
8. CC(C)CCOC(=O)CS(=O)(=O)C(C)c1ccc(-c2ccccc2F)cc1 (stereo not drawn)

1. 0 out of 5
2. 1 out of 5
3. 2 out of 5
4. 0 out of 5
5. 0 out of 5
6. 0 out of 5
7. 0 out of 5
8. 0 out of 5

Hello, I would appreciate it if you could give animals died (at the stated dose) for each entry below.
1. O=C(O)CS(=O)(=O)Cc1ccc(-c2ccc(Cl)cc2)cc1 [V, reference compound]
2. COC(=O)C[S+]([O-])C(C)(C)c1ccc(-c2ccccc2F)cc1 (stereo not drawn)
3. COC(=O)C[S+]([O-])CCC(C)c1ccc(-c2ccccc2)cc1 (stereo not drawn)
4. CC(c1ccc(-c2ccccc2F)cc1)[S+]([O-])CC(=O)N1CC[S+]([O-])CC1 (stereo not drawn)

1. 3 out of 10
2. 2 out of 5
3. 0 out of 5
4. 0 out of 5

---

Give LD50 at 336 h for every item shown.
Experiment: Acute toxicity after oral administration of a single dose
Format: in vivo
Details: mouse, in vivo, po, white mice, observation time 14 days

Reference set (2 entries):
> print(dat)
                                   compound  attribute.measured  experimental.value
1  CC(C)CCOC(=O)C[S+]([O-])C(C)c1ccc(-c2ccccc2F)cc1 (stereo not drawn)       LD50 at 336 h         > 250 mg/kg
2  CC(c1ccc(-c2ccccc2F)cc1)[S+]([O-])CC(=O)N1CC[S+]([O-])CC1 (stereo not drawn)       LD50 at 336 h         > 250 mg/kg

Looking up COC(=O)CS(=O)(=O)C(C)c1ccc(-c2ccccc2F)cc1 (stereo not drawn) , I found its LD50 at 336 h recorded as > 250 mg/kg
